Assignment: determine reported IC50 for the given molecules.
Molecular target: MELK (Homo sapiens)
Sequence (Q14680 whole entry, looked up): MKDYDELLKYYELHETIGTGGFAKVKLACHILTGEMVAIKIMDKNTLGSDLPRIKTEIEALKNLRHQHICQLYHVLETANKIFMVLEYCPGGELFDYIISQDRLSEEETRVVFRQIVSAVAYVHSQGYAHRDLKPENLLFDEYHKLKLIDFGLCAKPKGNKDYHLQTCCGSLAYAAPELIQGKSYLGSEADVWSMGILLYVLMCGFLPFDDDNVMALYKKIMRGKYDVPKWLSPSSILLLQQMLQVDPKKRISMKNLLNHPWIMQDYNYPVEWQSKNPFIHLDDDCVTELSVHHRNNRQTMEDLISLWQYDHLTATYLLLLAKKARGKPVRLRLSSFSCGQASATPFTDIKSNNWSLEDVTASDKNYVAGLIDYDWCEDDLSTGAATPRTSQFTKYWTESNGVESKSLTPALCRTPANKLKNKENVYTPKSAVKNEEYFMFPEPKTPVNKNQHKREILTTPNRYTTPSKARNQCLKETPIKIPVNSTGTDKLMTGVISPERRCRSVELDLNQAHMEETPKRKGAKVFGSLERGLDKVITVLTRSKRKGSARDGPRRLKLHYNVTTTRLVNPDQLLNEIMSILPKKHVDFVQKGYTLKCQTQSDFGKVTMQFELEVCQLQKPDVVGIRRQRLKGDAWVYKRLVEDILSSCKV
Experiment: Kinase assay (IMAP fluorescence polarization, FITC-labeled histone H3 peptide)
Format: biochemical
Settings: 50 micro-M ATP
Where a name gives a salt, the structure may show the parent alone.
Give bare numbers, in µM.

Would you mind giving IC50 for every molecule in the list below?
1. CC(=O)c1cnc2ccc(-c3cc(F)c(O)c(Cl)c3)nc2c1NC[C@H]1CC[C@H](N(C)C)CC1 [Example 90, dihydrochloride]
2. CCC(=O)c1cnc2ccc(-c3cc(Cl)c(O)c(Cl)c3)nc2c1Nc1ccc(N2CCC[C@H](N)C2)nc1 [Example 207, trihydrochloride]
3. CC(=O)c1cnc2ccc(-c3cc(F)c(O)c(F)c3)nc2c1N[C@H]1CC[C@H](CN(C)C)CC1 [Example 50, dihydrochloride]
4. CC(=O)c1cnc2ccc(N3CCCC3)nc2c1N[C@H]1CC[C@H](CN2CCCC2)CC1 [Example 78]

Ans.
1: 0.0024; 2: 0.0016; 3: 0.0019; 4: 2
